# maps each entry to its pIC50
Molecular target: Cholecystokinin receptor type A (Homo sapiens)
Sequence (P32238 whole entry): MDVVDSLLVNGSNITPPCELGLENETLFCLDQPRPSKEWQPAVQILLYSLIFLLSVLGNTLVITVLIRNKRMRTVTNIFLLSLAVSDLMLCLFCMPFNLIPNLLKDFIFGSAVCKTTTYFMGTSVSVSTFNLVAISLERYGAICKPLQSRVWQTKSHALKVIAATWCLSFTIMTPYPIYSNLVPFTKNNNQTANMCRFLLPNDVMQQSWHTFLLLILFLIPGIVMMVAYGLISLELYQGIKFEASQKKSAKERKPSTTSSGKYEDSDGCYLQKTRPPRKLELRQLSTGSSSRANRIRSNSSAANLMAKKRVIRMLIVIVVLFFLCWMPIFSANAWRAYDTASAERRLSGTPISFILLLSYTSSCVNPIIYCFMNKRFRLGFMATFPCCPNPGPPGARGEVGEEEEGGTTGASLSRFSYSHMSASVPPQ
pIC50: −log10 of the molar value.
reported.property: pIC50

>>> df
                      smiles_representation  reported_property  meas_value
0  CCOc1cccc(-n2cc(C(=O)N3CCN(c4cnc5ccccc5c4)C[C@H]3COCC(=O)O)nc2-c2ccc(C)cc2)c1              pIC50       10.28
1  CCOc1cccc(-n2cc(C(=O)N3CCN(c4cc(C(=O)O)c5ccccc5c4)C[C@H]3C(=O)NC(C)C)nc2-c2ccc(C)cc2F)c1              pIC50       11.00
2  CCOc1cccc(-n2cc(C(=O)N3CCN(c4cnc5ccccc5c4)C[C@@H]3COC(C)=O)nc2-c2ccc(C)cc2)c1              pIC50        9.62
3  CCOc1cccc(-n2cc(C(=O)N3CCN(c4cnc5ccccc5c4)C[C@@H]3COCC(=O)O)nc2-c2ccc(C)cc2)c1              pIC50       10.41

====

assay: Tmax in mouse at 1 mg/kg, iv and 10 mg/kg, po; assay type: ADME, organism-based; settings: in vivo
reported.property: Tmax (h)

>>> df
                      smiles_representation  meas_value
0  CCOc1cccc(-n2cc(C(=O)N3CCN(c4cc(C(=O)O)c5ccccc5c4)CC3)nc2-c2ccc(C)cc2)c1         6.7
1  CCOc1cccc(-n2cc(C(=O)N3CCN(c4cc(C(=O)O)c5ccccc5c4)C[C@H]3C(=O)NC(C)C)nc2-c2ccc(C)cc2F)c1           8
2  CCOc1cccc(-n2cc(C(=O)N3CCN(c4cc(C(=O)O)c5ccccc5c4)C[C@H]3C(=O)NC(C)C)nc2-c2ccc(C)cc2)c1         5.5
3  CCOc1cccc(-n2cc(C(=O)N3CCN(c4cc(C(=O)O)c5ccccc5c4)CC3)nc2-c2ccc(C)cc2F)c1         0.6

====

Here's a batch of compounds along with measured log10(IC50) for Cholecystokinin receptor type A (Homo sapiens, UniProt P32238).
reported.property: log10(IC50) (log10 of the value in pM)

>>> print(df.to_string())
                      smiles_representation                               test_system  meas_value
0  CCOc1cccc(-n2cc(C(=O)N3CCN(c4cnc5ccccc5c4)C[C@@H]3CNC(C)=O)nc2-c2ccc(C)cc2)c1  Cholecystokinin receptor type A (Homo sapiens, UniProt P32238)        2.40
1  CCOc1cccc(-n2cc(C(=O)N3CCN(c4cnc5ccccc5c4)C[C@H]3COC(C)=O)nc2-c2ccc(C)cc2)c1  Cholecystokinin receptor type A (Homo sapiens, UniProt P32238)        2.67
2  CCOc1cccc(-n2cc(C(=O)N3CCN(c4cnc5ccccc5c4)C[C@@H]3CNC(=O)NC)nc2-c2ccc(C)cc2)c1  Cholecystokinin receptor type A (Homo sapiens, UniProt P32238)        2.75
3  CCOc1cccc(-n2cc(C(=O)N3CCN(c4cnc5ccccc5c4)C[C@@H]3CNS(C)(=O)=O)nc2-c2ccc(C)cc2)c1  Cholecystokinin receptor type A (Homo sapiens, UniProt P32238)        2.63
4  CCOc1cccc(-n2cc(C(=O)N3CCN(c4cnc5ccccc5c4)C[C@H]3C(=O)NC(C)C)nc2-c2ccc(C)cc2)c1  Cholecystokinin receptor type A (Homo sapiens, UniProt P32238)        2.38
5  CCOc1cccc(-n2cc(C(=O)N3CCN(c4cc(C(=O)O)c5ccccc5c4)C[C@H]3CNS(C)(=O)=O)nc2-c2ccc(C)cc2F)c1  Cholecystokinin receptor type A (Homo sapiens, UniProt P32238)        1.83
6  CCOc1cccc(-n2cc(C(=O)N3CCN(c4cnc5ccccc5c4)C[C@H]3CNS(C)(=O)=O)nc2-c2ccc(C)cc2)c1  Cholecystokinin receptor type A (Homo sapiens, UniProt P32238)        2.86
